// Abs. corym. 1 MIC records
Write the value in µg/mL as a bare number.

Can you look up the measured MIC of COc1cccc(C2OC2(Cn2ccnc2)c2ccc(Cl)cc2)c1 (single isomer, unassigned) for me? 8

###

Quick record of MIC values for Strept. faec. 8043.
Write the answer as a number in µg/mL, unit excluded.

See these solved cases before continuing.
I'd like to know its MIC. The compound in question is Clc1ccc(C2(Cn3ccnc3)OC2c2ccccc2)cc1 (single isomer, unassigned) [Beispiel 9] 128

Which MIC is reported for this compound? COc1cccc(C2OC2(Cn2ccnc2)c2ccc(Cl)cc2)c1 (single isomer, unassigned) [Beispiel 29] 4

Which MIC is listed for Clc1ccc(C2OC2(Cn2ccnc2)c2ccccc2)c(Cl)c1 (single isomer, unassigned) [Beispiel 6] ? 16

// MIC lookup, key: CC(C)(C)C1(Cn2ccnc2)OC1c1ccc(Cl)cc1Cl (single isomer, unassigned) [Beispiel 18] 2

Can you share its MIC? I mean this compound: Clc1ccc(C2OC2(Cn2ccnc2)c2ccc(Br)cc2)c(Cl)c1 (single isomer, unassigned) [Beispiel 7] 16

Continuing:
If you can, please state the reported MIC value of Clc1ccc(C2(Cn3ccnc3)OC2c2ccc(Cl)cc2Cl)cc1 (single isomer, unassigned) [Beispiel 1] . 128

###

Target or system Strept. faec. 8043; recorded quantity MIC.
Answer format: numeric, µg/mL implied, no suffix.

I would be grateful if you could share the reported MIC for CC(C)(C)c1ccc(C2OC2(Cn2ccnc2)c2ccc(Cl)cc2Cl)cc1 (single isomer, unassigned) . 2

---
Which MIC value belongs to Clc1ccc(C2(Cn3ccnc3)OC2c2ccc(Br)cc2)cc1 (single isomer, unassigned) ? 4

###

Test system: Chaetomium globosum
Test: Versuch 6: fungal growth on malt extract agar containing active ingredient
Type: cell-based
Parameters: key: 0 = kein Pilzwachstum (Pilzmyzel abgetötet); 1 = geringes Pilzwachstum (bis 1/3 der Agaroberfläche bewachsen); 3 = mittleres Pilzwachstum (bis 2/3 der Agaroberfläche bewachsen); 5 = ungehemmtes Pilzwachstum (gesamte Agaroberfläche bewachsen)
Conditions: 40 ppm in 5 % malt extract agar; 5 days at 25 °C; growth score
// reported Wirksamkeit gegen Chaetomium globosum for each item listed
Field format: numeric only.

Reference set (4 entries):
For the compound CC1(Cn2cncn2)OC1c1ccc(Cl)cc1Cl (single isomer, unassigned) [Beispiel 22] , what Wirksamkeit gegen Chaetomium globosum is on record? 1

Could you tell me which Wirksamkeit gegen Chaetomium globosum is on file for Clc1ccc(C2OC2(Cn2cncn2)c2ccc(Br)cc2)cc1 (single isomer, unassigned) [Beispiel 44] ? 1

Fill in the blank: the reported Wirksamkeit gegen Chaetomium globosum of CC(C)(C)C1(Cn2ccnc2)OC1c1ccc(Cl)cc1 (single isomer, unassigned) [Beispiel 14] is ____. 0

Form field: reported Wirksamkeit gegen Chaetomium globosum of Clc1ccc(C2(Cn3ccnc3)OC2c2ccc(Br)cc2)cc1 (single isomer, unassigned) [Beispiel 48] 0

Others:
Any idea what its Wirksamkeit gegen Chaetomium globosum is? The compound is Clc1ccc(C2OC2(Cn2cncn2)c2ccc(Br)cc2)c(Cl)c1 (single isomer, unassigned) [Beispiel 10] 0

Please give the measured Wirksamkeit gegen Chaetomium globosum for this compound: Clc1ccc(C2(Cn3cncn3)OC2c2ccc(Br)cc2)cc1 (single isomer, unassigned) [Beispiel 46] 0

Param item = CC(C)(C)C1(Cn2cncn2)OC1c1ccccc1 (single isomer, unassigned) [Beispiel 15] ; retrieve measured Wirksamkeit gegen Chaetomium globosum. 3

###

Reported values of MIC for individual entries
Tested on: Abs. corym. 1
A number alone suffices; assume µg/mL.

Known MIC results, listed for orientation:
For Abs. corym. 1, provide MIC of Clc1ccc(C2(Cn3ccnc3)OC2c2ccc(Cl)cc2Cl)cc1 (single isomer, unassigned) please. 0.5

Could you share what MIC was measured for Clc1ccc(C2(Cn3cncn3)OC2c2ccc(Cl)cc2Cl)cc1 (single isomer, unassigned) , tested on Abs. corym. 1? 2

// switching to the query compound
Give recorded MIC with Abs. corym. 1 for the following compound: Clc1ccc(C2OC2(Cn2ccnc2)c2ccc(Br)cc2)c(Cl)c1 (single isomer, unassigned) 1

###

# key: entry, value: fungizide Wirkung gegen Weizenbraunrost
Test system: Weizenbraunrost (Puccinia recondita)
Assay: Versuch 2: activity against wheat brown rust on wheat seedlings
Type: in vivo
Conditions: 0,025; 0,006; 0,0015 %ige Spritzbrühen; sprayed 24 h after inoculation; assessed after 8 days; value given as 'beispielsweise'
Respond with the bare value in %.

Which measured fungizide Wirkung gegen Weizenbraunrost value corresponds to Clc1ccc(C2OC2(Cn2cncn2)c2ccc(-c3ccccc3)cc2)cc1 (single isomer, unassigned) [Beispiel 42] ? 100

Recorded fungizide Wirkung gegen Weizenbraunrost of Clc1ccc(C2(Cn3cncn3)OC2c2ccc(Br)cc2)cc1 (single isomer, unassigned) [Beispiel 46] , please. 100

Need fungizide Wirkung gegen Weizenbraunrost of O=C(Cn1cncn1)c1ccc(Cl)cc1Cl [Wirkstoff B, reference compound] , thanks. 50

Returns the measured fungizide Wirkung gegen Weizenbraunrost for the input compound. Input: Clc1ccc(C2OC2(Cn2cncn2)c2ccc(Br)cc2)c(Cl)c1 (single isomer, unassigned) [Beispiel 10] 100

Continuing:
What value of fungizide Wirkung gegen Weizenbraunrost has been recorded for this entry: COc1cccc(C2OC2(Cn2cncn2)c2ccc(Cl)cc2)c1 (single isomer, unassigned) [Beispiel 30] 100

###

Test system: Chaetomium globosum
Experiment: Versuch 6: fungal growth on malt extract agar containing active ingredient
Type: cell-based
Design: key: 0 = kein Pilzwachstum (Pilzmyzel abgetötet); 1 = geringes Pilzwachstum (bis 1/3 der Agaroberfläche bewachsen); 3 = mittleres Pilzwachstum (bis 2/3 der Agaroberfläche bewachsen); 5 = ungehemmtes Pilzwachstum (gesamte Agaroberfläche bewachsen)
Settings: 40 ppm in 5 % malt extract agar; 5 days at 25 °C; growth score
property_label: Wirksamkeit gegen Chaetomium globosum
I'd appreciate a reply containing only the number, no unit.

Worked examples, 4 compounds total:
Look up Wirksamkeit gegen Chaetomium globosum: CC1(Cn2cncn2)OC1c1ccc(Cl)cc1Cl (single isomer, unassigned) [Beispiel 23] 0

Find the recorded Wirksamkeit gegen Chaetomium globosum belonging to Fc1ccc(C2OC2(Cn2cncn2)c2ccc(Cl)cc2)cc1 (single isomer, unassigned) [Beispiel 50] and report it. 0

# get_value(readout='Wirksamkeit gegen Chaetomium globosum', item= Fc1ccc(C2OC2(Cn2cncn2)c2ccc(Cl)cc2)cc1 (single isomer, unassigned) [Beispiel 45] ) 1

Given Clc1ccc(C2OC2(Cn2cncn2)c2ccc(-c3ccccc3)cc2)cc1 (single isomer, unassigned) , state its recorded Wirksamkeit gegen Chaetomium globosum. 0

***
Need Wirksamkeit gegen Chaetomium globosum, item Clc1ccc(C2(Cn3ccnc3)OC2c2ccc(Br)cc2)c(Cl)c1 (single isomer, unassigned) 1

###

Tested on: Abs. corym. 1
The entries below come with measured log10 MIC values attached.
Plainly stated, the numbers are log10 of MIC given in µg/mL.

Recorded results for 3 molecules are shown here.
Record lookup: for Abs. corym. 1, what log10 MIC belongs to Clc1ccc(C2(Cn3ccnc3)OC2c2ccccc2)cc1 (single isomer, unassigned) [Beispiel 9] ? 0.60

Lab note: need log10 MIC for Clc1ccc(C2(Cn3ccnc3)OC2c2ccc(Br)cc2)cc1 (single isomer, unassigned) [Beispiel 47] on Abs. corym. 1, anyone have it? 0.30

// fetch Abs. corym. 1 log10 MIC for CC(C)(C)C1(Cn2ccnc2)OC1c1ccc(Cl)cc1Cl (single isomer, unassigned) [Beispiel 18] 1.51

Next:
Hello, I am looking for reported log10 MIC with Abs. corym. 1 for Clc1ccc(C2OC2(Cn2ccnc2)c2ccccc2)c(Cl)c1 (single isomer, unassigned) [Beispiel 6] . Could you help? 0.90

Param readout= log10 MIC; system= Abs. corym. 1; entry= COc1cccc(C2OC2(Cn2cncn2)c2ccc(Cl)cc2)c1 (single isomer, unassigned) [Beispiel 30] ; returns value. 1.20

API: value(readout=log10 MIC, system=Abs. corym. 1) for record CC(C)(C)c1ccc(C2OC2(Cn2ccnc2)c2ccc(Cl)cc2Cl)cc1 (single isomer, unassigned) [Beispiel 21] 1.20
